Test system: ACHN renal
assay comment: NCI tumour cell line growth inhibition, 48 h
Would you mind telling me the reported TGI of each entry?

Past entries and their recorded results:
O=C(c1ccccc1)N1C(=S)N(c2ccccn2)C(=Nc2ccccc2)C1=Nc1ccccc1 : 35.3 µM
CC1=C(C(=O)N(C)c2ccc(Cl)c(C(=O)OC(C)C)c2)SCCO1 : > 100 µM
COC1=C(C)C(=O)c2c(cc3c(c2O)C(C)(CCC=C(C)C)C(C)O3)C1=O (stereo not given) : > 100 µM

# map each molecule to its TGI
1. CC(C)(C)c1[nH]nc2c1C(c1cc3ccccc3[nH]c1=O)Nc1cc(C(=O)OCc3ccccc3)ccc1N2 (stereo not given)
2. COc1ccc(-c2c(C#N)c(S)n(NS(=O)(=O)c3ccccc3)c(=O)c2C#N)cc1
3. CN1CCc2[nH]nc(-c3n[nH]c4c3CN(C)CC4)c2C1
4. CC(Cl)CC(=O)OCC1CCCN2CCCCC12 (stereo not given)
5. CCOC(=O)c1nc2ccc(C(F)(F)F)cc2nc1Oc1ccc(C(=O)OC)cc1
6. Cc1cn2c(/C=C3/C(=O)Nc4ccc(O)cc43)c(C)nc2s1
7. N#CNC(=NCCc1c[nH]c2ccccc12)Oc1ccccc1

A)
["> 100 µM", "> 100 µM", "> 100 µM", "> 100 µM", "> 100 µM", "62.8 µM", "> 100 µM"]

###

System: A498 renal
assay comment: NCI tumour cell line growth inhibition, 48 h
Would you mind telling me the reported TGI of each entry?
One number for each entry, in µM.

Past entries and their recorded results:
Fc1ccc(C(OCCN2CC3CCC(C2)N3CCCc2ccccc2)c2ccc(F)cc2)cc1 : 17.7
COC(=O)C1=C(C)NC(C)=C(C(=O)OCC(C)C)C1c1ccccc1[N+](=O)[O-] (stereo unspecified) : 23.7
Cc1ccc(Nc2nc3c(=O)n(C)c(=O)n(C)c3nc2Nc2ccc(C)cc2)cc1 : 40.2
CNc1ccc(C(=O)CC(O)CCC(C)C2OC(=O)CC(O)CC(=O)CC(O)CC(O)CC(O)CC(O)CC3(O)CC(O)C(C(=O)NCCN4CCOCC4)C(CC(OC4OC(C)C(O)C(N)C4O)/C=C/C=C/C=C/C=C\C=C/C=C/C=C/C2C)O3)cc1 (stereo unspecified) : 0.8

# map each compound to its TGI
1. O=[N+]([O-])c1cc(Cl)cnc1Br
2. CCOC(=O)c1cc2c(n1Cc1cc(OC)c(OC)c(OC)c1)-c1oncc1CCC2
3. O=C(NNC(=O)c1csc(NC(=S)NC2CCCCC2)n1)c1ccccc1
4. COc1ccccc1CNCCCN1C(=O)c2ccc3c4c(ccc(c24)C1=O)C(=O)N(CCCN)C3=O
5. c1ccc2[nH]c(-c3cc(-c4ccc5c(c4)OCO5)n[nH]3)nc2c1

A)
1: 32; 2: 0.435; 3: 76.2; 4: 3.04; 5: 12.8

Q) Request the reported TGI associated with CC(C)CCNCC(O)Cn1c2ccccc2c2ccccc21 (stereo unspecified)
A) 22.8

###

Test system: OVCAR-5 ovarian
assay comment: NCI tumour cell line growth inhibition, 48 h
Would you mind telling me the reported TGI of each entry?

CN(C)C(=O)c1cnc2oc3ccc(O)cc3c2c1-c1ccccc1 : > 25 µM
CCOC(=O)c1c(NC(=S)Nc2ccccc2)sc2c1CCOC2 : > 100 µM
C[C@]12CC[C@@H]3c4ccc(O)cc4CC[C@H]3[C@@H]1Cc1cnc(N)nc12 : 76.1 µM
CCCCCCCCCCCCCCCCCCOCC(O)COP(=O)(O)OCC1OC(n2ccc(N)nc2=O)C(O)C1O (stereo not given) : > 100 µM

Q) Request the reported TGI associated with "Cc1ccc(C(=O)N/N=C(\N=Nc2ccc(C(=O)O)cc2)c2ccc(N(CCC#N)CCC#N)cc2C)cc1"
A) > 100 µM

###

Tested on: SW-620 colon
assay comment: NCI tumour cell line growth inhibition, 48 h
Where a SMILES comes first, the peptide text is derived from it. [ ]: non-standard residue; d: D form.
Would you mind telling me the reported TGI of each entry?

Past entries and their recorded results:
N#Cc1c(O)c(/C=N/c2ncccn2)c(=O)n2c1[nH]c1ccccc12 : > 100 µM
CN(C)Cc1cc(N=Nc2ccc(Cl)cc2)cc(CN(C)C)c1O : 21.1 µM
COC(=O)CCC(NC(=O)OC(C)(C)C)C(=O)NC(Cc1ccc(NC(=O)CCCC(C)=O)cc1)C(=O)NC(CCC(=O)OC)C(=O)OC (stereo not drawn) : > 100 µM
CC(C)C[C@H](NC(=O)[C@H](CC(C)C)NC(=O)[C@@H](Cc1c[nH]c2ccccc12)NC(=O)[C@H](Cc1ccccc1)NC(=O)[C@@H](Cc1c[nH]c2ccccc12)NC(=O)[C@H](CCC(N)=O)NC(=O)[C@H](CCC(N)=O)NC(=O)[C@H]1CCCN1C(=O)[C@@H](N)CCCCN)C(N)=O (H-K[dP]QQ[dW]F[dW]LL-NH2) : > 100 µM
O=C1/C(=N\O)S(=O)(=O)c2ccccc21 : > 100 µM
O1[As]2O[As]3O[As]1O[As](O2)O3 : 4.54 µM
CC(=O)[CH-]C(=O)c1ccccc1.CC(=O)[CH-]C(=O)c1ccccc1.CC(=O)[CH-]C(=O)c1ccccc1.[In+3] : > 100 µM

# next molecule below
Q) Request the reported TGI associated with "Cc1nc2sccn2c1/C=C1/C(=O)Nc2cccc(Cl)c21"
A) > 100 µM

###

System: SK-MEL-28 melanoma
assay comment: NCI tumour cell line growth inhibition, 48 h
property: TGI

Cc1ccc(-c2csc(NC(=O)N3CCN(c4cc5c(cc4F)c(=O)c(C(=O)O)cn5C4CC4)CC3)n2)cc1 : > 100 µM

# map each molecule to its TGI
1. CCCCCCCCC/C=C1\CCC(CN(C)C)C1=O (stereo not drawn)
2. Cc1[nH]c(=O)nc(Nc2ccc(Cl)cc2)c1C(=O)N1CCN(CCO)CC1
3. c1ccc([I+]c2ccccc2)cc1
4. COc1ccc(N(/C=C/C(=O)C(F)(F)F)CC(=O)c2ccc(F)cc2)cc1
5. C[C@@H]1CC[C@@]2(OC1)O[C@H]1C[C@H]3[C@@H]4CC[C@H]5C[C@@H](OC6OC(CO)C(OC7OC(CO)C(O)C(OC8OCC(O)C(O)C8O)C7OC7OC(CO)C(O)C(O)C7O)C(O)C6O)[C@H](O)C[C@]5(C)[C@H]4CC[C@]3(C)[C@H]1[C@@H]2C (stereo partly drawn)
6. Nc1c(C(=O)c2cccc(-c3cccnc3)c2)cnn1-c1ccc(F)cc1F

A)
1. 4.28 µM
2. > 100 µM
3. > 100 µM
4. > 100 µM
5. 31 µM
6. > 25 µM

Q) Request the reported TGI associated with COC(=O)C12OC3CO[Si](C(C)C)(C(C)C)O[Si](C(C)C)(C(C)C)OC3C1Oc1nc(=O)ccn12 (stereo not drawn)
A) 30.4 µM

###

System: MALME-3M melanoma
assay comment: NCI tumour cell line growth inhibition, 48 h
property: TGI

O=C(O)C1CCCCN1c1ccccc1[N+](=O)[O-] (centres undefined) : > 100 µM
O=C(N/N=C/c1cc(Br)cc(Br)c1[O-])c1ccccc1O.O=C(N/N=C/c1cc(Br)cc(Br)c1[O-])c1ccccc1O.[Co+2] : 18.5 µM
Cc1ccc(N(C)S(=O)(=O)c2ccccc2[N+](=O)[O-])cc1 : > 100 µM

# next compound below
Q) Request the reported TGI associated with "Cc1ccc(-c2csc(NC(=O)N3CCN(c4cc5c(cc4F)c(=O)c(C(=O)O)cn5C4CC4)CC3)n2)cc1"
A) 5.67 µM

###

Would you mind telling me the reported TGI of each entry?
System: MDA-MB-231 breast
assay comment: NCI tumour cell line growth inhibition, 48 h
Give bare numbers, in µM.

Past entries and their recorded results:
CCCCCCCCCCCCCCCCCCOCC(O)COP(=O)(O)OCC1OC(n2ccc(N)nc2=O)C(O)C1O (stereo not given) : 64.7
Cc1cccc(N/C(Sc2ccccc2)=C(/C(Cl)=C(Cl)Cl)[N+](=O)[O-])c1 : 53.9
CCOC(=O)C1CCCCN1C(=O)c1ccc(Nc2cnc3cc(C(F)(F)F)ccc3n2)cc1 (stereo not given) : 5.66
Cc1ccc(-c2nc3nc(-c4ccccc4)nc(N4CCNCC4)c3o2)cc1 : 0.537
COC(=O)/C=C1/OC(c2ccc(OC)cc2)=C(Cl)C1=O : 26.2
O=C(NNC(=O)c1csc(NC(=S)NC2CCCCC2)n1)c1ccccc1 : 30.8

# map each compound to its TGI
1. O=CN1CCN(C(=O)c2ccc(Cl)c(Cl)c2)C1=S
2. Cc1ccc(-c2csc(NC(=O)N3CCN(c4cc5c(cc4F)c(=O)c(C(=O)O)cn5C4CC4)CC3)n2)cc1
3. COc1cc(OC)c2[nH]c3c(O)c(-c4c(C)cc5c([nH]c6c(OC)cc(OC)cc65)c4O)c(C)cc3c2c1

A)
[30.8, 19.4, 19.1]

# map each compound to its TGI
1. COc1cnc2c(c1)C(=O)c1c-2n(CCCNC2=NCCS2)c(=O)c2cc(Cl)ccc12
2. c1ccc2[nH]c(-c3cc(-c4ccc5c(c4)OCO5)n[nH]3)nc2c1
3. O=C(c1cc2c(c3ccccc13)NC1(CCCCC1)N=C2C(F)(F)F)C(F)(F)F

A)
3.07
20.2
9.83
